These measurements were taken from paper PMC12245108.

Target: MPXV I7L protease (Monkeypox virus, UniProt Q8V512)
Where a SMILES comes first, the peptide text is derived from it. The star is where a group is joined. NHCH2CN = N#CCN*
// boundary case: IC50 equal to 200 nM maps to false (0); strictly smaller maps to true (1)

CC[C@H](C)[C@H](NC(=O)[C@H](Cc1ccc(O)cc1)NC(=O)[C@@H]1CCCN1C(C)=O)C(=O)N[C@@H](C)C(=O)NCC#N [compound 7] (Ac-PYIA-NHCH2CN)    false (0)
CC[C@H](C)[C@H](NC(C)=O)C(=O)N[C@H](C(=O)N[C@@H](CC(N)=O)C(=O)N[C@@H](C)C(=O)NCC#N)[C@@H](C)O [compound 4] (Ac-ITNA-NHCH2CN)    false (0)
CC[C@H](C)[C@H](NC(C)=O)C(=O)N[C@@H](Cc1ccccc1)C(=O)N[C@@H](CC(N)=O)C(=O)N[C@@H](C)C(=O)NCC#N [compound 8] (Ac-IFNA-NHCH2CN)    true (1)
CC(=O)N[C@@H](CC(=O)O)C(=O)N[C@@H](Cc1ccccc1)C(=O)N[C@@H](CO)C(=O)N[C@@H](C)C(=O)NCC#N [compound 6] (Ac-DFSA-NHCH2CN)    true (1)

Check if IC50 falls below 200 nM for CC[C@H](C)[C@H](NC(=O)Cc1ccccc1)C(=O)N[C@@H](C)C(=O)NCC#N [compound 10] .
true (1)

Could you do the same for CC[C@H](C)[C@H](NC(C)=O)C(=O)N[C@@H](Cc1ccccc1)C(=O)N[C@@H](Cc1ccccc1)C(=O)N[C@@H](C)C(=O)NCC#N [compound 1] (Ac-IFFA-NHCH2CN) , please?
true (1)
